- measured on: T1, human LAP-TGFB1 Fc fusion (human)
- T1 construct: also called human LAP-TGFβ1-Fc; human LAP-TGFβ-Fc isoform 1
- measurement notes: SPR pH 7.4, antigen-Fc captured, Fab analyte
The entries below are paired with their reported Kd.
Record the value in pM, omitting the unit from your answer.

Example entries and their recorded answers appear below.
{"columns": ["binder", "Kd (pM)"],
 "data": [
  ["66BLH (Fab, V domains shown, also called 18BLM Fab) VH: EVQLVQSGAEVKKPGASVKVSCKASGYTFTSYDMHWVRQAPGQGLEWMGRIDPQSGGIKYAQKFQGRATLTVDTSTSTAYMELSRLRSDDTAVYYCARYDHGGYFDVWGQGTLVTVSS VL: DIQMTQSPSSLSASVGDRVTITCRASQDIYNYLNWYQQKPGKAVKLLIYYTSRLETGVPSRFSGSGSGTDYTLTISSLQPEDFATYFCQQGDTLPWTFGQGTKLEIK", 3730],
  ["54BLH (Fab, V domains shown, also called 06BLM Fab) VH: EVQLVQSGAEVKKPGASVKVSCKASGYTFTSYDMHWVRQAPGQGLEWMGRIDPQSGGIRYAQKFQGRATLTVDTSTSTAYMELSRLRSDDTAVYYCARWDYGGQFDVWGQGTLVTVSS VL: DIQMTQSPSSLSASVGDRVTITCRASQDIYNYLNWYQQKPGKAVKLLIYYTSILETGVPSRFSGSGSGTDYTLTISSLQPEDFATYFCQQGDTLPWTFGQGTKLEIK", 4]
]}

// field: Kd; key: 67BLH (Fab, V domains shown, also called 19BLM Fab) VH: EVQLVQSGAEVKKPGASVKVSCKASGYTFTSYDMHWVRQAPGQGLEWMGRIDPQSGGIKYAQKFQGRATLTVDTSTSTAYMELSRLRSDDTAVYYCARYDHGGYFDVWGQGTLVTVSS VL: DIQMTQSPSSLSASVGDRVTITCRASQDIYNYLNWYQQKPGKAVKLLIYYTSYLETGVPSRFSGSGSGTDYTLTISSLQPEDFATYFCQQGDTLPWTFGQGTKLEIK ; value = 961
